# credit: patent US20250339399A1

Please provide measured Concentration of the target in the solution measured after different incubation time for the entries that follow.
# assay_info: Binary supramolecular self-assembly systems of polymer and target: guest concentration over incubation time (Comparative Example 2)
# Type: physicochemical
# particulars: binary system with 0.5% polymer 103; incubation 0.5 h
Answers are plain numbers, in µg/mL.

{"columns": ["compound", "readout_units", "reading"],
 "data": [
  ["COC(=O)[C@H](c1ccccc1Cl)N1CCc2sccc2C1", "µg/mL", 69.1],
  ["CCOc1nc2cccc(C(=O)OC(C)OC(=O)OC3CCCCC3)c2n1Cc1ccc(-c2ccccc2-c2nnn[nH]2)cc1 (centres unmarked)", "µg/mL", 91.6]
]}

Hey, can you go through the list below and give me Concentration of the target in the solution measured after different incubation time for every item?
1. CCCCC1OC(=O)c2ccccc21 (centres unmarked) [Butylphthalide]
2. COc1cc2nccc(Oc3ccc(NC(=O)NC4CC4)c(Cl)c3)c2cc1C(N)=O

1. 234.7
2. 12.9

Which Concentration of the target in the solution measured after different incubation time value belongs to "Cc1ccc(-c2cc(C(F)(F)F)nn2-c2ccc(S(N)(=O)=O)cc2)cc1" ? 31.1

* * *

# assay_info: Guest molecule concentration after incubation in initial medium without polymer (Comparative Example 1)
# Format: physicochemical
# particulars: 6 h; 37° C.; pH 6.8 phosphate buffer
# Description: pH 2.0 hydrochloric acid, pH 4.5 acetate, and pH 6.5, pH 6.8, or pH 7.4 phosphate buffer solutions were prepared. […] When the solubility of the target in the initial medium is below the quantitative limit of the analytical method, a small amount of surfactant, such as sodium dodecyl sulfate (SDS), Tween20, or Tween80, can be added appropriately. […]
Counter-ions that a name gives are not always drawn.
Please provide measured Concentration of guest molecule measured after different incubated time for the entries that follow.
Numbers only, in ng/mL.

The cases that follow already have their Concentration of guest molecule measured after different incubated time on record.
{"columns": ["compound", "reading"],
 "data": [
  ["O=C1C[C@@H](c2ccc(O)cc2)Oc2cc(O)cc(O)c21 [Naringenin]", 129100],
  ["O=C1[C@@H]2[C@H]3CC[C@H](C3)[C@@H]2C(=O)N1C[C@@H]1CCCC[C@H]1CN1CCN(c2nsc3ccccc23)CC1 [Lurasidone hydrochloride]", 3200],
  ["COc1cc(/C=C/C(=O)CC(=O)/C=C/c2ccc(O)c(OC)c2)ccc1O [Curcumin]", 8600],
  ["Cc1c(C)c2c(c(C)c1O)CC[C@@](C)(CCC[C@H](C)CCC[C@H](C)CCCC(C)C)O2 [Vitamin E, vitamin E]", 11900],
  ["CC1(C)CCC(CN2CCN(c3ccc(C(=O)NS(=O)(=O)c4ccc(NCC5CCOCC5)c([N+](=O)[O-])c4)c(Oc4cnc5[nH]ccc5c4)c3)CC2)=C(c2ccc(Cl)cc2)C1 [Venetoclax, venetoclax]", 9600]
]}

Moving on to another compound below.
Which Concentration of guest molecule measured after different incubated time value belongs to CC1=C(/C=C/C(C)=C/C=C/C(C)=C/CO)C(C)(C)CCC1 [Vitamin A, vitamin A] ? 53000

* * *

# assay_info: Binary supramolecular self-assembly systems of polymer and target: guest concentration over incubation time (Comparative Example 2)
# Type: physicochemical
# particulars: binary system with 0.5% polymer 107; incubation 0.5 h
Please provide measured Concentration of the target in the solution measured after different incubation time for the entries that follow.
Give bare numbers, in µg/mL.

{"columns": ["molecule", "readout_units", "reading"],
 "data": [
  ["COC1=CC(=O)C[C@@H](C)[C@]12Oc1c(Cl)c(OC)cc(OC)c1C2=O [Griseofulvin, griseofulvin]", "µg/mL", 109.2],
  ["CNC(=O)c1ccc(N2C(=S)N(c3ccc(C#N)c(C(F)(F)F)c3)C(=O)C2(C)C)cc1F [Enzalutamide]", "µg/mL", 236.9],
  ["O=C(O)[C@H]1O[C@@H](Oc2cc3oc(-c4ccc(O)cc4)cc(=O)c3c(O)c2O)[C@H](O)[C@@H](O)[C@@H]1O [Scutellarin, scutellarin]", "µg/mL", 61.7],
  ["COc1cc(/C=C/C(=O)CC(=O)/C=C/c2ccc(O)c(OC)c2)ccc1O [Curcumin]", "µg/mL", 107.4]
]}

Hey, can you go through the list below and give me Concentration of the target in the solution measured after different incubation time for every item?
1. CCCCC1OC(=O)c2ccccc21 (stereo not shown) [Butylphthalide]
2. CCOc1nc2cccc(C(=O)OC(C)OC(=O)OC3CCCCC3)c2n1Cc1ccc(-c2ccccc2-c2nnn[nH]2)cc1 (stereo not shown) [Candesartan Cilexetil, candesartan cilexetil]
3. CCCSc1nc(N[C@@H]2C[C@H]2c2ccc(F)c(F)c2)c2nnn([C@@H]3C[C@H](OCCO)[C@@H](O)[C@H]3O)c2n1 [Ticagrelor]
4. O=C1[C@@H]2[C@H]3CC[C@H](C3)[C@@H]2C(=O)N1C[C@@H]1CCCC[C@H]1CN1CCN(c2nsc3ccccc23)CC1 [Lurasidone, lurasidone]
5. CC1(C)CCC(CN2CCN(c3ccc(C(=O)NS(=O)(=O)c4ccc(NCC5CCOCC5)c([N+](=O)[O-])c4)c(Oc4cnc5[nH]ccc5c4)c3)CC2)=C(c2ccc(Cl)cc2)C1 [Venetoclax, venetoclax]
6. C=CC[C@@H]1/C=C(\C)C[C@H](C)C[C@H](OC)[C@H]2O[C@@](O)(C(=O)C(=O)N3CCCC[C@H]3C(=O)O[C@H](/C(C)=C/[C@@H]3CC[C@@H](O)[C@H](OC)C3)[C@H](C)[C@@H](O)CC1=O)[C@H](C)C[C@@H]2OC [Tacrolimus]

242.4
189.1
48.3
3.2
152.2
68.7

Hey, can you go through the list below and give me Concentration of the target in the solution measured after different incubation time for every item?
1. COc1cc2nccc(Oc3ccc(NC(=O)NC4CC4)c(Cl)c3)c2cc1C(N)=O [Lenvatinib]
2. CNC(=O)c1cc(Oc2ccc(NC(=O)Nc3ccc(Cl)c(C(F)(F)F)c3)cc2)ccn1 [Sorafenib]
3. C=CC(=O)N1CCC[C@@H](n2nc(-c3ccc(Oc4ccccc4)cc3)c3c(N)ncnc32)C1 [Ibrutinib]

1: 68.2; 2: 784.3; 3: 47.9
